- target_of_assay: Muscarinic acetylcholine receptor M1 (Rattus norvegicus) (UniProt P08482)
- Sequence (P08482 whole entry, looked up): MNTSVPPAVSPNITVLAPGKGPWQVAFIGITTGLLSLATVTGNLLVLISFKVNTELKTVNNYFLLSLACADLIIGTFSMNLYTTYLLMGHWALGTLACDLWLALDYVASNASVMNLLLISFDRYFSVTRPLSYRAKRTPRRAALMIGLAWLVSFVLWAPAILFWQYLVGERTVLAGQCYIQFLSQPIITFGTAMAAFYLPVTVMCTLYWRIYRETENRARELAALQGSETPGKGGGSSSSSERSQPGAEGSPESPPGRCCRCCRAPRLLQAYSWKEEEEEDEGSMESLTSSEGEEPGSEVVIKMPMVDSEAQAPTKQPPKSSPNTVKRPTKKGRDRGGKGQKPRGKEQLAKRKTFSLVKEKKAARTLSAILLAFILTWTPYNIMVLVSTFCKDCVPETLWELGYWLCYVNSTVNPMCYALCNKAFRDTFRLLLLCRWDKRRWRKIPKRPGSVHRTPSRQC
- test: antagonists of rat M1 muscarinic receptor (AID 628)
- experimental_conditions: CHO-M1 cells, Fluo-4 calcium, ACh EC80 antagonist mode; at 10 µM
The whole screen tested about 64,000 compounds, of which about 2,200 (3.4%) were called active.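 The calls were made as follows: active = calcium fluorescence response, raw or row-and-column corrected B-score, differing from the plate sample mean either way at a set confidence level, mostly lower; inactive = the rest.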 The entries come from a sample that favours actives as a whole.
Respond using exactly one of the listed classes: active, inactive

Query :: Check the results log: what was the call for CC1(C)CN=C(N2CCN(c3ncnc4sc5c(c34)CCCC5)CC2)S1 ?
Result :: active

Query :: Would you kindly repeat that for CCOc1ccc(-c2nnc(-c3ccco3)o2)cc1 ?
Result :: inactive

Query :: Would you kindly repeat that for CCOC(=O)Cn1c2c(c(-c3ccccc3OC)cc1=O)CCCC2 ?
Result :: inactive

Query :: Would you kindly repeat that for N=c1c2c3c(sc2ncn1N)CCCCC3 ?
Result :: inactive

Query :: Would you kindly repeat that for O=C(O)[C@@H]1CCCN1c1ncnc2sc3c(c12)CCC3 ?
Result :: inactive

Query :: Would you kindly repeat that for COc1ccc(N2CCN(Cc3cc(=O)oc4ccc5ccccc5c34)CC2)cc1 ?
Result :: inactive

Cited source: PubChem BioAssay AID628
